# System: IL-6
# Assay Text: Inhibition of IL-6 production by stimulated human peripheral blood leukocytes in vitro
# Type: cell-based
# Assay Conditions: Homo sapiens, Leukocyte, 50 μM; LPS-stimulated PBL; read-out: Percentage of inhibition of IL-6 production
# Lookup of reported inhibition at 50 µM keyed by entry
Measure: inhibition at 50 µM (%)

• CC[C@H]1OC(=O)[C@H](C)[C@@H](O[C@H]2C[C@@](C)(OC)[C@@H](OC(=O)CCN(C)CCN(CC)CC)[C@H](C)O2)[C@H](C)[C@@H](O[C@@H]2O[C@H](C)C[C@H](N(C)C)[C@H]2O)[C@](C)(OC)C[C@@H](C)C(=O)N[C@H](C)[C@@H](O)[C@]1(C)O [Example 21] = 22
• CC[C@H]1OC(=O)[C@H](C)[C@@H](O[C@H]2C[C@@](C)(OC)[C@@H](OC(=O)CCN(CC)CC)[C@H](C)O2)[C@H](C)[C@@H](O[C@@H]2O[C@H](C)C[C@H](N(C)C)[C@H]2O)[C@](C)(OC)C[C@@H](C)C(=O)[C@H](C)[C@H]2N(C)C(=O)O[C@]12C [Example 10] = 71
• CC[C@H]1OC(=O)[C@H](C)[C@@H](O[C@H]2C[C@@](C)(OC)[C@@H](OC(=O)CCN3CCN(CCCN4CCCCC4)CC3)[C@H](C)O2)[C@H](C)[C@@H](O[C@@H]2O[C@H](C)C[C@H](N(C)C)[C@H]2O)[C@](C)(OC)C[C@@H](C)C(=O)N[C@H](C)[C@@H](O)[C@]1(C)O [Example 22] = 28
• CC[C@H]1OC(=O)[C@H](C)[C@@H](O[C@H]2C[C@@](C)(OC)[C@@H](OC(=O)CCN(CC)CC)[C@H](C)O2)[C@H](C)[C@@H](O[C@@H]2O[C@H](C)C[C@H](N(C)C)[C@H]2O)[C@](C)(O)C[C@@H](C)CN(C)[C@H](C)[C@H]2OC(=O)O[C@@]21C [Example 1] = 94

* * *

# System: IL-8
# Assay Text: Inhibition of IL-8 production by stimulated human peripheral blood leukocytes in vitro
# Type: cell-based
# Assay Conditions: Homo sapiens, Leukocyte, 50 μM; zymosan-stimulated PBL; read-out: Percentage of inhibition of IL-8 production
# Procedure: Test substances used in in vitro experiments were dissolved in dimethyl sulfoxide (DMSO) (Kemika, Croatia) at concentrations of 50 mM and 10 mM, and were further diluted to final concentrations of 50 μM and 10 μM in 1 mL Dulbecco's modified Eagle medium (DMEM) supplemented with 1% heat inactivated fetal bovine serum (FBS), 1% L-glutamine, 50 U/ml penicillin, 50 μg/ml streptomycin and 2.5 μg/mL Fungizone (amphotericin B). […]
Reported inhibition at 50 µM values for the following molecules.
Measure: inhibition at 50 µM (%)

- CC[C@H]1OC(=O)[C@H](C)[C@@H](O[C@H]2C[C@@](C)(OC)[C@@H](OC(=O)CCN(CC)CC)[C@H](C)O2)[C@H](C)[C@@H](O[C@@H]2O[C@H](C)C[C@H](N(C)C)[C@H]2O)[C@](C)(OC)C[C@@H](C)C(=O)[C@H](C)[C@H]2N(C)C(=O)O[C@]12C: 36
- CC[C@H]1OC(=O)[C@H](C)[C@@H](O[C@H]2C[C@@](C)(OC)[C@@H](OC(=O)CCNC3CC3)[C@H](C)O2)[C@H](C)[C@@H](O[C@@H]2O[C@H](C)C[C@H](N(C)C)[C@H]2O)[C@](C)(OC)C[C@@H](C)C(=O)N[C@H](C)[C@@H](O)[C@]1(C)O: 0
- CC[C@H]1OC(=O)[C@H](C)[C@@H](O[C@H]2C[C@@](C)(OC)[C@@H](OC(=O)CCN3CCCN(CCCN4CCCC4)CC3)[C@H](C)O2)[C@H](C)[C@@H](O[C@@H]2O[C@H](C)C[C@H](N(C)C)[C@H]2O)[C@](C)(OC)C[C@@H](C)C(=O)N[C@H](C)[C@@H](O)[C@]1(C)O: 81
- CC[C@H]1OC(=O)[C@H](C)[C@@H](O[C@H]2C[C@@](C)(OC)[C@@H](OCCCN)[C@H](C)O2)[C@H](C)[C@@H](O[C@@H]2O[C@H](C)C[C@H](N(C)C)[C@H]2O)[C@](C)(O)C[C@@H](C)CN(C)[C@H](C)[C@H]2OC(=O)O[C@@]21C [Example 51C]: 0

* * *

compounds and their reported Percentage of inhibition of IL-8 production
# Tested on: IL-8
# Assay Text: Inhibition of IL-8 production by stimulated human peripheral blood leukocytes in vitro
# Format: cell-based
# Assay Conditions: 50 μM; LPS-stimulated PBL
Measure: Percentage of inhibition of IL-8 production

- CCC1OC(=O)C(C)C(OC2CC(C)(OC)C(OCCCN3CCN(CCN(CC)CC)CC3)C(C)O2)C(C)C(OC2OC(C)CC(N(C)C)C2O)C(C)(O)CC(C)CN(C)C(C)C2OC(=O)OC12C (stereo not shown): 23%
- CC[C@H]1OC(=O)[C@H](C)[C@@H](O[C@H]2C[C@@](C)(OC)[C@@H](OCCCN(CC)CC)[C@H](C)O2)[C@H](C)[C@@H](O[C@@H]2O[C@H](C)C[C@H](N(C)C)[C@H]2O)[C@](C)(O)C[C@@H](C)CN(C)[C@H](C)[C@H]2OC(=O)O[C@@]21C: 16%
- CCC1OC(=O)C(C)C(OC2CC(C)(OC)C(OC(=O)CCN(CC)CC)C(C)O2)C(C)C(OC2OC(C)CC(N(C)C)C2O)C(C)(OC)CC(C)C(=O)NC(C)C(O)C1(C)O (stereo not shown): 79%
- CCC(=O)N(C)[C@H]1C[C@@H](C)O[C@@H](O[C@@H]2[C@@H](C)[C@H](O[C@H]3C[C@@](C)(OC)[C@@H](OC(=O)CCN(CC)CC)[C@H](C)O3)[C@@H](C)C(=O)O[C@H](CC)[C@@](C)(O)[C@H](O)[C@@H](C)NC(=O)[C@H](C)C[C@@]2(C)OC)[C@@H]1O: 36%

* * *

# System: IL-6
# Assay Text: Inhibition of IL-6 production by stimulated human peripheral blood leukocytes in vitro
# Format: cell-based
# Assay Conditions: Homo sapiens, Leukocyte, 50 μM; LPS-stimulated PBL; read-out: Percentage of inhibition of IL-6 production
Measure: inhibition at 50 µM

* CC[C@H]1OC(=O)[C@H](C)[C@@H](O[C@H]2C[C@@](C)(OC)[C@@H](OC(=O)CCN(C)C3CCCCC3)[C@H](C)O2)[C@H](C)[C@@H](O[C@@H]2O[C@H](C)C[C@H](N(C)C)[C@H]2O)[C@](C)(OC)C[C@@H](C)C(=O)N[C@H](C)[C@@H](O)[C@]1(C)O | 62%
* CC[C@H]1OC(=O)[C@H](C)[C@@H](O[C@H]2C[C@@](C)(OC)[C@@H](OC(=O)CCN3CCCN(CCCN4CCCC4)CC3)[C@H](C)O2)[C@H](C)[C@@H](O[C@@H]2O[C@H](C)C[C@H](N(C)C)[C@H]2O)[C@](C)(OC)C[C@@H](C)C(=O)N[C@H](C)[C@@H](O)[C@]1(C)O | 91%
* CC[C@H]1OC(=O)[C@H](C)[C@@H](O[C@H]2C[C@@](C)(OC)[C@@H](OC(=O)CCN3CCCCCC3)[C@H](C)O2)[C@H](C)[C@@H](O[C@@H]2O[C@H](C)C[C@H](N(C)C)[C@H]2O)[C@](C)(OC)C[C@@H](C)C(=O)N[C@H](C)[C@@H](O)[C@]1(C)O | 92%

* * *

Below is a list of entries, each paired with its recorded inhibition at 10 µM value.
# System: IL-1α
# Assay Text: Inhibition of IL-1 production by stimulated human peripheral blood leukocytes in vitro
# Format: cell-based
# Assay Conditions: Homo sapiens, Leukocyte, 10 μM; PMA-stimulated PBL; read-out: Percentage of inhibition of IL-1α production
Measure: inhibition at 10 µM (%)

* C=CC(=O)OC1[C@H](C)O[C@@H](O[C@H]2[C@H](C)[C@@H](O[C@@H]3O[C@H](C)C[C@H](NC)[C@H]3O)[C@](C)(OC)C[C@@H](C)C(=O)N[C@H](C)[C@@H](O)[C@](C)(O)[C@@H](CC)OC(=O)[C@@H]2C)C[C@@]1(C)OC (stereo partly shown) | 92
* CC[C@H]1OC(=O)[C@H](C)[C@@H](O[C@H]2C[C@@](C)(OC)[C@@H](O)[C@H](C)O2)[C@H](C)[C@@H](O[C@@H]2O[C@H](C)C[C@H](N(C)C)[C@H]2O)[C@](C)(OC)C[C@@H](C)C(=O)[C@H](C)[C@@H](O)[C@]1(C)O [clarithromycin, reference compound] | 26
* CC[C@H]1OC(=O)[C@H](C)[C@@H](O[C@H]2C[C@@](C)(OC)[C@@H](OC(=O)CCN(CC)CC)[C@H](C)O2)[C@H](C)[C@@H](O[C@@H]2O[C@H](C)C[C@H](N(C)C)[C@H]2O)[C@](C)(O)C[C@@H](C)CN(C)[C@H](C)[C@@H](O)[C@]1(C)O | 38
* CC[C@H]1OC(=O)[C@H](C)C(O[C@H]2C[C@@](C)(OC)[C@@H](OC(=O)CCN(CC)CC)[C@H](C)O2)[C@H](C)[C@@H](O[C@@H]2O[C@H](C)C[C@H](N(C)C)[C@H]2O)[C@](C)(OC)C[C@@H](C)C(=O)[C@H](C)[C@H](O)[C@]1(C)O (stereo partly shown) | 35
